These data points were gathered from patent US20110034670A1.

Target: Lck
Sequence (D3DPP8 whole entry): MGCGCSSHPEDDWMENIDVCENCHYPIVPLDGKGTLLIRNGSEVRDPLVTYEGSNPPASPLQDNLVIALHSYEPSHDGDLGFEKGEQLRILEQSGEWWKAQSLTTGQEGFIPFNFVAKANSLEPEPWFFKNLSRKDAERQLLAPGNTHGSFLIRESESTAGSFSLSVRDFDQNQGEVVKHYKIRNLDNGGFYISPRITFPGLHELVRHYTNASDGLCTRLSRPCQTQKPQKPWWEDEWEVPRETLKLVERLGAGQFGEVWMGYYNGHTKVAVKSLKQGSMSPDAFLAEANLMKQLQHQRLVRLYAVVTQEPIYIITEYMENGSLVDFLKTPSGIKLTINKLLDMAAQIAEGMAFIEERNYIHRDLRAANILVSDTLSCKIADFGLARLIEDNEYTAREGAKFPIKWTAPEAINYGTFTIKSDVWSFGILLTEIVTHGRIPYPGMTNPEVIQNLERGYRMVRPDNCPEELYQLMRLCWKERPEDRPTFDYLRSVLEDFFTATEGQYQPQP
Experiment: steady-state kinetics, ATP-binding site, after UV exposure
Measure Name: Ki (µM)
Answers are plain numbers, in µM.

Lookup result for ATP-1,13-Trioxa-SA-pTyr-γ-p-azidoGlu-Glu-Ile-OH (7) (peptide) ; measured Ki: 29.8

###

Biological target: Src tyrosine kinase
Experiment: steady-state kinetics, radioactive kinase assay; ATP-binding site of Src
Measure Name: Ki

I looked up ATP-1,13-Trioxa-SA-pTyr-γ-p-azidoGlu-Glu-Ile-OH (7) (peptide) and its Ki for Src tyrosine kinase was 1700 to 2600 nM

###

Target: Lck
Experiment: steady-state kinetics, radioactive kinase assay; ATP-binding site
Measure Name: pKi
Answers are plain numbers, as −log10 of the molar value.

Documented pKi of ATP-1,13-Trioxa-SA-pTyr-γ-p-azidoGlu-Glu-Ile-OH (7) (peptide) : 4.52
